- target-or-test-system: T1, human TL1A extracellular domain with N-terminal HIS and FLAG tag (human, UniProt O95150 72-251)
- T1 construct: whole entry named. ~70 kDa fraction purified by gel filtration
- T1 sequence: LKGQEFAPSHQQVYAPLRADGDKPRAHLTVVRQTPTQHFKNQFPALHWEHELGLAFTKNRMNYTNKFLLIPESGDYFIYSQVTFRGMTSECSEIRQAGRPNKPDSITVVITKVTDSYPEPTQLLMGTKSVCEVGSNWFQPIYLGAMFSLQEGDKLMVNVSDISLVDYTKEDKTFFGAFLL
- assay-remarks: SPR run 3; supernatant on Protein A; TL1A 10 ug/mL; timepoint 590
recorded-metric: TL1A Binding Level (Late) (RU)
Return type: number; implicit unit RU.

320-264 (antibody, human IgG1, name in Kabat numbering, V domains shown, human IgG1, lambda) VH: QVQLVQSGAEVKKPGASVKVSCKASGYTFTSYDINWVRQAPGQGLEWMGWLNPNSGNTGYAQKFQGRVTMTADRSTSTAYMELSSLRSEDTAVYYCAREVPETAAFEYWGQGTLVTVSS VL: QSVLTQPPSVSGAPGQRVTISCTSSSSDIGLGLGVHWYQQLPGTAPKLLIEGYYNRPSGVPDRFSGSKSGTSASLTITGLLPEDEGDYYCQSYDGTLSALFGGGTKLTVLG    184
320-299 (antibody, human IgG1, name in Kabat numbering, V domains shown, human IgG1, lambda) VH: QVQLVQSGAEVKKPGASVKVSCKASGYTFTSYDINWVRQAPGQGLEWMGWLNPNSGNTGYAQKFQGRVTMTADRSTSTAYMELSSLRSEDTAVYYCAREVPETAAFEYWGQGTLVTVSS VL: QSVLTQPPSVSGAPGQRVTISCTSSSSDIGAGLGLHWYQQLPGTAPKLLIEGYYNRPSGVPDRFSGSKSGTSASLTITGLLPEDEGDYYCQSYDGTLSALFGGGTKLTVLG    13

We next turn to a different binder, shown below.
Problem: GET /values?readout=TL1A Binding Level (Late)&item= 320-268 (antibody, human IgG1, name in Kabat numbering, V domains shown, human IgG1, lambda) VH: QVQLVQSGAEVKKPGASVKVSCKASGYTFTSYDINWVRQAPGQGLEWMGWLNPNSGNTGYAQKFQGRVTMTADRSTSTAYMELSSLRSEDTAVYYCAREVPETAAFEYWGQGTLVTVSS VL: QSVLTQPPSVSGAPGQRVTISCTSSSSDIGASLGVHWYQQLPGTAPKLLIEGYYNRPSGVPDRFSGSKSGTSASLTITGLLPEDEGDYYCQSYDGTLSALFGGGTKLTVLG
Solution: 7
